Test system: Mycobacterium bovis BCG strain
Assay: microbe, parasite or virus in culture
Type: cell-based
Conditions: Mycobacterium tuberculosis variant bovis BCG, BCG, 168 h, read-out: MIC (μg/mL) Mycobacterium bovis BCG, BCG strain, 7H9 medium, 37° C., 168 hours, resazurin
// MIC lookup, one value per entry
Please reply with the bare figure in µg/mL and do not write the unit itself.

| molecule | observed.result |
| --- | --- |
| Cc1c(C(=O)NCCCNC2C3CC4CC(C3)CC2C4)nn(-c2ccc(Cl)cc2Cl)c1-c1ccc(Cl)cc1 (stereo not shown) [Compound 18] | 6.1 |
| Cc1c(C(=O)NCCNC23CC4CC(CC(C4)C2)C3)nn(-c2ccc(Cl)cc2Cl)c1-c1ccc(Cl)cc1 [Compound 163] | 3.66 |

// moving on: another record for MIC
State, in one line, measured MIC of Cc1c(CNC(=O)CNC23CC4CC(C)(CC(C)(C4)C2)C3)nn(-c2ccc(Cl)cc2Cl)c1-c1ccc(Cl)cc1 [Compound 169] 1.91

----------
// MIC lookup, one value per entry
Test system: Mycobacterium bovis BCG strain
Test: microbe, parasite or virus in culture
Format: cell-based
Conditions: Mycobacterium tuberculosis variant bovis BCG, BCG, 168 h, read-out: MIC (μg/mL) Mycobacterium bovis BCG, BCG strain, 7H9 medium, 37° C., 168 hours, resazurin

Please review the following examples before continuing.
| compound | MIC |
| --- | --- |
| Cc1c(CNC(=O)NCCC23CC4CC(CC(C4)C2)C3)nn(-c2ccc(Cl)cc2Cl)c1-c1ccc(Cl)cc1 | > 122 µg/mL |
| Cc1c(C(=O)N2CCN(C(=O)C34CC5CC(CC(C5)C3)C4)CC2)nn(-c2ccc(Cl)cc2Cl)c1-c1ccc(Cl)cc1 | > 293 µg/mL |
| Cc1c(C(=O)O[C@H]2C[C@H]3CC[C@]2(C)C3(C)C)nn(-c2ccc(Cl)cc2Cl)c1-c1ccc(Cl)cc1 | > 232 µg/mL |

// moving on: another record for MIC
State, in one line, measured MIC of Cc1c(C(=O)NCCNC2C3CC4CC(C3)CC2C4)nn(-c2ccc(Cl)cc2Cl)c1-c1ccc(Cl)cc1 (stereo not shown) 5.95 µg/mL
